system: apo B secretion in HepG2 cells; test: Secretion of apo B in the HepG2 human cell line (sandwich ELISA); format: cell-based; details: 24 hours incubation, culture supernatant, ELISA for human apo B, read-out: IC50 (concentration that produces a 50% inhibition of apo B secretion in the HepG2 cells)
// returns Criterion not met unless IC50 is strictly below 2000 nM, in which case Criterion met

| compound | group |
| --- | --- |
| Cc1c(-c2ccccc2)nc(-c2csc(C3CCN(C(=O)c4ccccc4-c4ccc(C(F)(F)F)cc4)CC3)n2)n1C | Criterion met |
| CCn1c(-c2csc(C3CCN(C(=O)c4ccccc4-c4ccc(C(F)(F)F)cc4)CC3)n2)nc(-c2ccccc2)c1C | Criterion met |
| CCn1c(-c2csc(C3CCCN(C(=O)c4ccccc4-c4ccc(C(F)(F)F)cc4)C3)n2)nc(-c2ccccc2)c1C (stereo not shown) | Criterion not met |
| CCn1c(-c2csc(C3CCN(C(=O)c4ccccc4-c4ccc(C(F)(F)F)cc4)CC3)n2)nc(-c2ccccn2)c1C | Criterion not met |
| CCn1c(-c2csc(C3CCN(C(=O)c4cccc(C)c4-c4ccc(OC(F)(F)F)cc4)CC3)n2)nc(-c2ccccn2)c1C | Criterion not met |
| CCn1c(-c2csc(C3CCN(C(=O)c4ccccc4-c4ccc(C(F)(F)F)cc4)CC3)n2)nc(-c2cccnc2)c1C | Criterion met |
| CCn1c(-c2csc(C3CCN(C(=O)c4cccc(C)c4-c4ccc(OC(F)(F)F)cc4)CC3)n2)nc(-c2ccccc2)c1C | Criterion met |

====

target: microsomal triglyceride transfer protein (MTP) (Mesocricetus auratus, UniProt P55158)
Sequence (P55158 19-895): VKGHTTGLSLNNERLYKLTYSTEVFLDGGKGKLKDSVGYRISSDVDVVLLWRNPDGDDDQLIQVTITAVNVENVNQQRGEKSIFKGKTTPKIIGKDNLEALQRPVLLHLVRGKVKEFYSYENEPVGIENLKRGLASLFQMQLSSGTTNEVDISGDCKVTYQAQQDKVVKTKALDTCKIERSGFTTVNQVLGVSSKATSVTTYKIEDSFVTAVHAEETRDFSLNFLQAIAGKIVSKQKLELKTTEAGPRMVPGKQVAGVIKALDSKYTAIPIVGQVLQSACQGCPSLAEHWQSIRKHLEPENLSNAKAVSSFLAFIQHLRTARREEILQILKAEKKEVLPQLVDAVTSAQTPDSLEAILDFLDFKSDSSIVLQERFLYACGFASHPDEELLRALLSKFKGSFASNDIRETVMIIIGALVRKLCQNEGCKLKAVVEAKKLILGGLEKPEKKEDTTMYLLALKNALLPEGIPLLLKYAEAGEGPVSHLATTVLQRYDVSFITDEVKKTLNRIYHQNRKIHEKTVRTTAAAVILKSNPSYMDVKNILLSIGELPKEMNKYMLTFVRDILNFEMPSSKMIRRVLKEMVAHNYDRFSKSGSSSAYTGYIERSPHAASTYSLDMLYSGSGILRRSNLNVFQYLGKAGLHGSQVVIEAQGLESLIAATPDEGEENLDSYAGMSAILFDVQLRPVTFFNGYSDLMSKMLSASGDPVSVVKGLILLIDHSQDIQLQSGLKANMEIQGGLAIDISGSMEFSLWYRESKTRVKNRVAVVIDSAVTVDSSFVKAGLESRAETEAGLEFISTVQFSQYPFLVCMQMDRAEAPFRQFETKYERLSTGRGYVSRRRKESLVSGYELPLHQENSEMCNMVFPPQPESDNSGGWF
Each record here notes measured IC50.

| compound | IC50 (nM) |
| --- | --- |
| CCn1c(-c2csc(C3CCN(C(=O)c4cccc(C)c4-c4ccc(OC(F)(F)F)cc4)CC3)n2)nc(-c2ccccc2)c1C [Example 1] | 320 |
| CCn1c(-c2csc(C3CCN(C(=O)c4ccccc4-c4ccc(C(F)(F)F)cc4)CC3)n2)nc(-c2ccccc2)c1C [Example 3] | 270 |
| CCn1c(-c2csc(C3CCN(C(=O)c4ccccc4-c4ccc(C(F)(F)F)cc4)CC3)n2)nc(-c2cccnc2)c1C [Example 4] | 816 |
